- Test system: Trichosporon beigelii
- run.description: Inhibition of Trichosporon beigelli 1188 for 48 hours in vitro.
- Type: functional
- condition.context: Trichosporon beigelii, 48 h; read-out: MIC
value.type: log10 MIC (log10 of the value in µM)

| compound | log10 MIC |
| --- | --- |
| O=C1OC(CO)C=C1c1ccc(Br)cc1 (configuration not stated) | 2.70 |
| COc1ccc(C2=CC(COC(=O)C(C)(C)C)OC2=O)cc1 (configuration not stated) | 1.80 |
| CC(C)(C)C(=O)OCC1C=C(c2cccc(Cl)c2)C(=O)O1 (configuration not stated) | 1.19 |
| CC(=O)OCC1C=C(c2ccc(Cl)c(Cl)c2)C(=O)O1 (configuration not stated) | 0.89 |
| O=C1OC(CO)C=C1c1cccc(Cl)c1 (configuration not stated) | 3.00 |
| COc1ccc(C2=CC(COC(C)=O)OC2=O)cc1 (configuration not stated) | 1.80 |
| O=C1OC(COC(=O)c2ccc(Cl)cc2)C=C1c1ccc(Br)cc1 (configuration not stated) | 1.19 |
| CC(=O)OCC1C=C(c2cccc(Cl)c2)C(=O)O1 (configuration not stated) | 1.19 |
| CC(C)(C)C(=O)OCC1C=C(c2ccc(Br)cc2)C(=O)O1 (configuration not stated) | 0.89 |
| OC(Cn1cncn1)(Cn1cncn1)c1ccc(F)cc1F [FLUCONAZOLE] | 0.30 |
| CC(=O)OCC1C=C(c2ccc(Br)cc2)C(=O)O1 (configuration not stated) | 0.89 |

* * *

- System: Pichia kudriavzevii
- run.description: Inhibition of Candida krusei E28 growth for 48 hours in vitro.
- Type: functional
MIC reference
value.type: MIC (uM l-1)

| compound | unit.of.measure | data.value |
| --- | --- | --- |
| CC(C)(C)C(=O)OCC1C=C(c2ccc(Cl)c(Cl)c2)C(=O)O1 (single isomer, unassigned; (+)) | uM l-1 | 10.73 |
| CC(C)(C)C(=O)OCC1C=C(c2ccc(Cl)c(Cl)c2)C(=O)O1 (stereo in doubt; (-)2c) | uM l-1 | 5.36 |
| CC(C)(C)C(=O)OCC1C=C(c2ccc(Cl)c(Cl)c2)C(=O)O1 (stereo in doubt; 2c) | uM l-1 | 7.81 |

* * *

- Tested on: Pichia kudriavzevii
- run.description: Inhibition of Candida krusei E28 growth for 48 hours in vitro.
- Type: functional
- condition.context: Pichia kudriavzevii, 48 h; read-out: MIC
MIC reference
value.type: MIC (µM)

| compound | unit.of.measure | data.value |
| --- | --- | --- |
| CC(=O)OCC1C=C(c2cccc(Cl)c2)C(=O)O1 (stereo unspecified) | µM | 7.81 |
| CC(=O)OCC1C=C(c2ccc(Cl)c(Cl)c2)C(=O)O1 (stereo unspecified) | µM | 3.91 |
| O=C1OC(CO)C=C1c1ccc(Cl)c(Cl)c1 (stereo unspecified) | µM | 250 |
| COc1ccc(C2=CC(COC(=O)c3ccc(Cl)cc3)OC2=O)cc1 (stereo unspecified) | µM | 62.5 |
| CC(C)(C)C(=O)OCC1C=C(c2ccc(Br)cc2)C(=O)O1 (stereo unspecified) | µM | 7.81 |
| C[C@@H]1[C@H](O)[C@@H](C)/C=C/C=C/C=C/C=C/C=C/C=C/C=C/[C@H](O[C@@H]2O[C@H](C)[C@@H](O)[C@H](N)[C@@H]2O)C[C@@H]2O[C@](O)(C[C@@H](O)C[C@@H](O)[C@H](O)CC[C@@H](O)C[C@@H](O)CC(=O)O[C@H]1C)C[C@H](O)[C@H]2C(=O)O | µM | 4.33 |
